Just for reference, patent US7884244B2 is where these values come from.

# experimental-system: UniProtKB P18089
# Sequence (P18089 1-450): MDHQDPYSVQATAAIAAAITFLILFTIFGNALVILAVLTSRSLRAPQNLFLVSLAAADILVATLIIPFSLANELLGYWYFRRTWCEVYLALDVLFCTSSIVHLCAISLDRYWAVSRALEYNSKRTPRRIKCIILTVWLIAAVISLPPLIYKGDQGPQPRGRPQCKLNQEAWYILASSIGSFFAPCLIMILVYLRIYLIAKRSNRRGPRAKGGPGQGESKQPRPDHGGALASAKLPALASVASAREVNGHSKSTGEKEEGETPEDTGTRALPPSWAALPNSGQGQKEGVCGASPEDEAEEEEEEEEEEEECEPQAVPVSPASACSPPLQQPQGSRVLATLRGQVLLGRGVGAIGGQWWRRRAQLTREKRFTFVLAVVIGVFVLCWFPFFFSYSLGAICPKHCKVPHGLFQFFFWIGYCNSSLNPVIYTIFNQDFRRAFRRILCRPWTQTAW
# protocol-notes: Receptor Selection and Amplification Technology (RSAT) assay, alpha2B
# experimental-conditions: RSAT, transfected NIH-3T3 cells with Gq/i5; not active = not active at concentrations less than 10 micromolar; read-out: Alpha 2B EC50
Criterion: EC50 strictly less than 500 nM. Met: class 1. Not met: class 0.

Answered cases to consult:
compound	group-label
N#C/N=C(/NCCF)NCc1cccc2c1OCC2	class 1
Cc1cccc2c1CCC2N/C(=N\C#N)NCCF (centres unmarked)	class 1
N#C/N=C(/NCCF)NC1CCc2ccccc21 (centres unmarked)	class 1
Cc1cccc2c1CC[C@@H]2N/C(=N\C#N)NCCF	class 1
N#C/N=C(/NCCF)NC1Cc2ccccc2C1	class 0

Inquiry: Does this compound meet the criterion EC50 < 500 nM? N#C/N=C(/NCCF)NC1CCc2c(Cl)cccc21 (centres unmarked)
Reply text: class 0

Inquiry: State whether 500 nM exceeds EC50 recorded for Cc1cccc2c1CCCC2N/C(=N\C#N)NCCF (centres unmarked) .
Reply text: class 1
